Entries annotated with measured Antibacterial activity μg/mL, E.f243
Tested on: E.f243
Experiment: Antibacterial screening (MIC) of compounds of Example 2, E.f243
Format: cell-based, Enterococcus faecium
Conditions: Example 2 compounds; enterococci strain E.f243
Experimental readout: Antibacterial activity μg/mL, E.f243

{"Molecule": "C=CC[C@H](NC(=O)[C@@H](CCCNC(=N)N)NC(=O)[C@H](NCCCC)NC(=O)COc1ccc2ccccc2c1-c1c(OCc2ccccc2)ccc2ccccc12)C(=O)OCc1ccccc1.Cl.Cl [Compound 134]", "Data value": "62.5 µg/mL"}
{"Molecule": "C=CCOC(=O)c1cccc(NC(=O)[C@@H](CCCN)NC(=O)COc2ccc3ccccc3c2-c2c(OCC=C)ccc3ccccc23)c1.Cl [Compound 159]", "Data value": "125 µg/mL"}
{"Molecule": "C=CCOc1ccc2ccccc2c1-c1c(OCC(=O)N[C@H](CCCN)C(=O)Nc2cccc(C(=O)OCc3ccccc3)c2)ccc2ccccc12.Cl [Compound 157]", "Data value": ">125 µg/mL"}
{"Molecule": "CCCOc1ccc2ccccc2c1-c1c(OCC(=O)N[C@H](CCCN)C(=O)Nc2cccc(C(=O)NO)c2)ccc2ccccc12.Cl [Compound 163]", "Data value": ">125 µg/mL"}
{"Molecule": "C=CCOc1ccc2ccccc2c1-c1c(OCC(=O)N[C@H](CCCN)C(=O)Nc2cccc(C(=O)OC)c2)ccc2ccccc12.Cl [Compound 155]", "Data value": ">125 µg/mL"}
